- Tested on: A498 renal
- assay method text: NCI tumour cell line growth inhibition, 48 h
Answer each item with its documented TGI.
Unit µM implied. Number only.

Dear colleague, I am looking for the recorded TGI of the following compound: `CNCCCNC1(c2cc3ccccc3s2)CCCCC1`
14.1

Dear colleague, I am looking for the recorded TGI of the following compound: CC(=O)OC1CC2C(C)(C)C(=O)C=C[C@]2(C)C2CCC3(C)C(c4ccoc4)[C@@H](O)[C@H]4O[C@]43[C@]12C (some centres undefined)
49.7

Dear colleague, I am looking for the recorded TGI of the following compound: `NC1=CC(=O)c2nc3ccccc3c3ccnc1c23`
40.8

Dear colleague, I am looking for the recorded TGI of the following compound: `COc1ccc(OC)c(/C=C2\COc3ccc(O)c(O)c3C2=O)c1`
23.6

---

- Tested on: MDA-MB-231 breast
- assay method text: NCI tumour cell line growth inhibition, 48 h
Answer each item with its documented TGI.
Unit µM implied. Number only.

// lookup TGI | system=MDA-MB-231 breast | key= `O=C(NC1CCCCC1)NS(=O)(=O)c1ccc(-n2nc3c(c2-c2ccc(Cl)cc2)Cc2ccccc2-3)cc1`
23

// lookup TGI | system=MDA-MB-231 breast | key= `CC(=O)O[C@H]1CC[C@@]2(C)C(=C[C@H](c3ccc(O)cc3)[C@H]3[C@@H]4CC[C@H](OC(C)=O)[C@@]4(C)CC[C@@H]32)C1`
35.8

// lookup TGI | system=MDA-MB-231 breast | key= `Cc1cc2cc3cc(C)c(N)cc3[n+](C)c2cc1N`
8.39

// lookup TGI | system=MDA-MB-231 breast | key= `COc1ccc(-c2nn(-c3cccc(NC(=O)c4cccc(C(F)(F)F)c4)c3)cc2-c2ccncc2)cc1Cl`
16.1

// lookup TGI | system=MDA-MB-231 breast | key= `O=[N+]([O-])c1ccc(N/N=C(\c2ccccc2)c2ccccn2)nc1`
61.7

---

- Test system: ACHN renal
- assay method text: NCI tumour cell line growth inhibition, 48 h
Answer each item with its documented TGI.

Dear colleague, I am looking for the recorded TGI of the following compound: `COc1ccc(C(=O)CC(=O)C(=O)Nc2ccc(C)c(C)c2)cc1`
> 100 µM

Dear colleague, I am looking for the recorded TGI of the following compound: `COc1ccc(-c2cc(-c3cc(C)ccc3O)[nH]c(=O)n2)cc1`
> 100 µM

Dear colleague, I am looking for the recorded TGI of the following compound: `C(=NCCCN1CCN(CCCN=Cc2cccc3ccccc23)CC1)c1cccc2ccccc12`
> 100 µM

Dear colleague, I am looking for the recorded TGI of the following compound: `C/C(=C\CCc1ccsc1)CC/C=C(\C)CCCN1CCC(CO)CC1`
11.5 µM

Dear colleague, I am looking for the recorded TGI of the following compound: `O=C1CC[C@H](c2ccc(O)c3c2C(=O)[C@@H]2O[C@@H]2C3=O)c2cccc(O)c21`
4.16 µM

Dear colleague, I am looking for the recorded TGI of the following compound: `O=C(Nc1sccc1S(=O)(=O)c1ccc(Cl)cc1)c1ccccc1`
> 100 µM

Dear colleague, I am looking for the recorded TGI of the following compound: C[C@@H](CO)C1=CC(C#C[Si](C)(C)C)N(C(=O)Oc2ccccc2)c2ccccc21 (stereo not given in full)
42.1 µM

Dear colleague, I am looking for the recorded TGI of the following compound: `CO/N=C(\C(=O)Nc1cncs1)c1csc(N)n1`
> 10 µM

Dear colleague, I am looking for the recorded TGI of the following compound: CN(C)[C@H]1CC[C@H]2[C@@H]3CCC4C[C@@H](NC(=O)NC(Cc5ccccc5)c5nccs5)CC[C@]4(C)[C@H]3CC[C@]12C (stereo not given in full)
2.86 µM

Dear colleague, I am looking for the recorded TGI of the following compound: `O=C1N=NC(=O)N1c1cc(C(F)(F)F)cc(C(F)(F)F)c1`
14.2 µM

---

- Tested on: T-47D breast
- assay method text: NCI tumour cell line growth inhibition, 48 h
property label: log10(TGI) (log10 of the value in µM)
Please be aware that the numbers have been log10-transformed from TGI in µM.

Dear colleague, I am looking for the recorded log10(TGI) of the following molecule: `C=C(C)[C@@H]1CCC2=C[C@H](OC2=O)[C@@]2(C)C[C@@H]2C(=O)/C=C(/C)C(=O)[C@H]1OC(C)=O`
1.42

Dear colleague, I am looking for the recorded log10(TGI) of the following molecule: Cc1ccc([N+](=O)[O-])cc1S(=O)(=O)Nc1ccc(C2=NN(C(=O)c3ccccc3)C(c3cccs3)C2)cc1 (centres undefined)
1.93

Dear colleague, I am looking for the recorded log10(TGI) of the following molecule: `O=C(NCCNc1nccc(-c2c(-c3ccc(F)cc3)nc3sccn23)n1)c1ccccc1`
1.32

Dear colleague, I am looking for the recorded log10(TGI) of the following molecule: `COC(=O)Cc1c(/C=C/C(C)(C)n2cnc(CCN3C(=O)CCC3=O)c2)[nH]c2ccccc12`
1.78

Dear colleague, I am looking for the recorded log10(TGI) of the following molecule: `CCN(CC)CCCCNc1ncc2cc(-c3cc(OC)cc(OC)c3)c(NC(=O)NC(C)(C)C)nc2n1`
1.47

Dear colleague, I am looking for the recorded log10(TGI) of the following molecule: `C/C(=C\CCc1ccsc1)CC/C=C(\C)CCCN1CCC(CO)CC1`
0.78

Dear colleague, I am looking for the recorded log10(TGI) of the following molecule: `O=[N+]([O-])C(=C(N1CCCCC1)N1CCCCC1)/C(Cl)=C(\Cl)[N+](=O)[O-]`
0.59

Dear colleague, I am looking for the recorded log10(TGI) of the following molecule: `O=C1/C(=C/c2ccccc2F)CN(C(=O)C(Cl)Cl)C/C1=C\c1ccccc1F`
0.60

---

- Tested on: U251 CNS
- assay method text: NCI tumour cell line growth inhibition, 48 h
property label: TGI

Dear colleague, I am looking for the recorded TGI of the following compound: Cc1cn([C@H]2C[C@@H]3[C@@H](COC(CCl)N3O)O2)c(=O)[nH]c1=O (some centres undefined)
> 100 µM

Dear colleague, I am looking for the recorded TGI of the following compound: `COc1ccc(CCN2CCC(Nc3nc4ccccc4n3Cc3ccc(F)cc3)CC2)cc1`
2.89 µM

Dear colleague, I am looking for the recorded TGI of the following compound: CCOC1(OCC)N=C(N)C2(C#N)C3(C(=O)N(C(C)C)N=C3C)C12C#N (centres undefined)
> 100 µM

Dear colleague, I am looking for the recorded TGI of the following compound: `Cc1sc(Nc2ccccc2[N+](=O)[O-])c(C#N)c1C`
62.6 µM

Dear colleague, I am looking for the recorded TGI of the following compound: `O=C(NC1CCCCC1)NS(=O)(=O)c1ccc(-n2nc3c(c2-c2ccc(Cl)cc2)Cc2ccccc2-3)cc1`
29.7 µM

Dear colleague, I am looking for the recorded TGI of the following compound: `CC(C)n1c(=O)[nH]n(-c2ccccc2)c1=O`
> 100 µM

Dear colleague, I am looking for the recorded TGI of the following compound: CC1OC(OC2C(CO)OC(O[C@H]3CC[C@@]4(C)C(=CC[C@H]5[C@@H]6C[C@@H]7O[C@](O)(CC[C@H](CO)COC8OC(CO)C(O)C(O)C8O)[C@@H](C)[C@@H]7[C@@]6(C)CC[C@@H]54)C3)C(OC3OC(C)C(O)C(O)C3O)C2O)C(O)C(O)C1O (some centres undefined)
> 100 µM

Dear colleague, I am looking for the recorded TGI of the following compound: CC1C2(C)OC(=N)C(C#N)(C(C)O2)C1(C#N)C#N (centres undefined)
50 µM

Dear colleague, I am looking for the recorded TGI of the following compound: `COc1nc(N)nc2c1ncn2[C@@H]1O[C@H](CO)[C@@H](O)[C@@H]1O`
> 100 µM

---

- Tested on: UACC-62 melanoma
- assay method text: NCI tumour cell line growth inhibition, 48 h
Answer each item with its documented TGI.

Dear colleague, I am looking for the recorded TGI of the following molecule: CN(C)C1=NC2=S(SC(Nc3ccccc3)=N2)S1 (stereo not given)
> 100 µM

Dear colleague, I am looking for the recorded TGI of the following molecule: `CNS(=O)(=O)c1ccc2[nH]c(O)c(C3=Nc4ccccc4C3=O)c2c1`
> 100 µM

Dear colleague, I am looking for the recorded TGI of the following molecule: `CC(C)NC(=O)OCc1c(COC(=O)NC(C)C)c(-c2ccc(Cl)c(Cl)c2)n2c1CCC2`
53.9 µM

Dear colleague, I am looking for the recorded TGI of the following molecule: COC(=O)C1=C(CS(=O)c2ccc([N+](=O)[O-])cc2[N+](=O)[O-])ON(C)C1c1ccccc1 (stereo not given)
> 75.2 µM

Dear colleague, I am looking for the recorded TGI of the following molecule: `Cc1c(C(=O)/C=C/c2c(Cl)cccc2Cl)c(=O)n(-c2ccccc2)n1C`
> 100 µM

Dear colleague, I am looking for the recorded TGI of the following molecule: CCC[CH2][Sn]1([CH2]CCC)[O]CC(CN2CCOCC2)[O]1 (stereo not given)
4.55 µM

Dear colleague, I am looking for the recorded TGI of the following molecule: `Nc1ccc(-c2nc3ccccc3o2)cc1S`
26 µM

Dear colleague, I am looking for the recorded TGI of the following molecule: COC(=O)C(Cc1c(C2Nc3ccccc3C2CC(NC(C)=O)C(=O)OC)[nH]c2ccccc12)NC(C)=O (stereo not given)
> 100 µM

Dear colleague, I am looking for the recorded TGI of the following molecule: `COC(=O)CCc1ccc2c(c1)CC1(Cc3ccccc3C1)C2`
> 100 µM

Dear colleague, I am looking for the recorded TGI of the following molecule: `COc1cc2c(cc1OC)C1Cc3cc(OC)c(OC)cc3C(C2)O1`
> 100 µM

Dear colleague, I am looking for the recorded TGI of the following molecule: `NC(=O)Nc1ccc(C(=O)NCCCNC(=O)c2ccc(NC(N)=O)cc2)cc1`
> 100 µM

Dear colleague, I am looking for the recorded TGI of the following molecule: `O=C1/C(=C/c2ccc(Cl)cc2)N=C(c2ccccc2)N1c1nc2c(Cl)cc(Cl)cc2s1`
> 100 µM

Dear colleague, I am looking for the recorded TGI of the following molecule: `NC(=NCCN1CCCCCCC1)NO`
> 100 µM

Dear colleague, I am looking for the recorded TGI of the following molecule: CC1OC(OC2C(CO)OC(O[C@H]3CC[C@@]4(C)C(=CC[C@H]5[C@@H]6C[C@@H]7O[C@](O)(CC[C@H](C)COC8OC(CO)C(O)C(O)C8O)[C@@H](C)[C@@H]7[C@@]6(C)CC[C@@H]54)C3)C(OC3OC(C)C(O)C(O)C3O)C2O)C(O)C(O)C1O (stereo not given in full)
> 50.4 µM

Dear colleague, I am looking for the recorded TGI of the following molecule: `Cc1ccc(C(=O)C#Cc2c[nH]c(=O)[nH]c2=O)cc1`
21.8 µM

Dear colleague, I am looking for the recorded TGI of the following molecule: CCN(CC)CCCC(Cc1ccccc1)Nc1c2ccc(Cl)cc2nc2ccc(OC)cc12 (stereo not given)
3.64 µM

Dear colleague, I am looking for the recorded TGI of the following molecule: `COc1nc(N)nc2c1ncn2[C@@H]1O[C@H](CO)[C@@H](O)[C@@H]1O`
> 100 µM

Dear colleague, I am looking for the recorded TGI of the following molecule: `CN(C)CCNC1=CC(=O)c2nc3ccccc3c3ccnc1c23`
18.2 µM

Dear colleague, I am looking for the recorded TGI of the following molecule: COC(=O)CS(=O)c1ccccc1 (stereo not given)
> 100 µM

Dear colleague, I am looking for the recorded TGI of the following molecule: `CCOC(=O)N1CCN(c2nc(C)n(-c3ccccc3)c(=S)c2C#N)CC1`
> 100 µM
